Below is a list of entries, each paired with its recorded Relative to UNC0638 UNC Heavy value.
- ASSAY TARGET: T1, G9a and GLP (Homo sapiens, UniProt Q96KQ7+Q9H9B1)
- T1 sequence (Q96KQ7 2-1210 limits assumed): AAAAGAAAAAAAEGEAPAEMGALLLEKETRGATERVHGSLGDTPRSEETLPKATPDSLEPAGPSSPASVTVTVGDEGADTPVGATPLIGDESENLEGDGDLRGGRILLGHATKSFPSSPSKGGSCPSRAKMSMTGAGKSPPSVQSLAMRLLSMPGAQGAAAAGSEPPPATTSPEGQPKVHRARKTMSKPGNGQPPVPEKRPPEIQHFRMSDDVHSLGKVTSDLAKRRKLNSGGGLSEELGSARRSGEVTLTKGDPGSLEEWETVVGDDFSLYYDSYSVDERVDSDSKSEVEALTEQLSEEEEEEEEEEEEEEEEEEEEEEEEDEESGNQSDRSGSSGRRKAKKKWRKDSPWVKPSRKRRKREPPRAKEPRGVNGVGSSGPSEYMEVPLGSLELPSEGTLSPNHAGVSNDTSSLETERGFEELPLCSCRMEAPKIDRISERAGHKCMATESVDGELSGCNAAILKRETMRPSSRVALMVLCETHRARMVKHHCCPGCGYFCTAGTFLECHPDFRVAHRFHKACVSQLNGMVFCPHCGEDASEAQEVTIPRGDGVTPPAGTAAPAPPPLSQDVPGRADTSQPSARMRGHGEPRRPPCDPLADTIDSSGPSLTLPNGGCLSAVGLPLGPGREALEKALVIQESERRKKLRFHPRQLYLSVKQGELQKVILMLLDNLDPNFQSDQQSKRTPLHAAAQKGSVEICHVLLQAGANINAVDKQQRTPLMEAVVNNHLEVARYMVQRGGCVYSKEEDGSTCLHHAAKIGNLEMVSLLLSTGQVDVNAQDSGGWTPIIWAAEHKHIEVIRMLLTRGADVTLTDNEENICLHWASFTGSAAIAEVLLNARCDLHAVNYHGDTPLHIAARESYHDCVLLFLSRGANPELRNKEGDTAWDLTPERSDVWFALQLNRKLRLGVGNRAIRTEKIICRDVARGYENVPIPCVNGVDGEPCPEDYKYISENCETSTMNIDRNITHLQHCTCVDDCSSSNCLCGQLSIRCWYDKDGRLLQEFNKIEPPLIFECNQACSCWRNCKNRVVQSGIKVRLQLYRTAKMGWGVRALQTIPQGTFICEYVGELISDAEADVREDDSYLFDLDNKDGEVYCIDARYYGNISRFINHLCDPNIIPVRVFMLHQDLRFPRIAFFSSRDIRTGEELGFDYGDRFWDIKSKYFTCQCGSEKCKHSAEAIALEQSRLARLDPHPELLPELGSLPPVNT
- T1 sequence (Q9H9B1 2-1298 limits assumed): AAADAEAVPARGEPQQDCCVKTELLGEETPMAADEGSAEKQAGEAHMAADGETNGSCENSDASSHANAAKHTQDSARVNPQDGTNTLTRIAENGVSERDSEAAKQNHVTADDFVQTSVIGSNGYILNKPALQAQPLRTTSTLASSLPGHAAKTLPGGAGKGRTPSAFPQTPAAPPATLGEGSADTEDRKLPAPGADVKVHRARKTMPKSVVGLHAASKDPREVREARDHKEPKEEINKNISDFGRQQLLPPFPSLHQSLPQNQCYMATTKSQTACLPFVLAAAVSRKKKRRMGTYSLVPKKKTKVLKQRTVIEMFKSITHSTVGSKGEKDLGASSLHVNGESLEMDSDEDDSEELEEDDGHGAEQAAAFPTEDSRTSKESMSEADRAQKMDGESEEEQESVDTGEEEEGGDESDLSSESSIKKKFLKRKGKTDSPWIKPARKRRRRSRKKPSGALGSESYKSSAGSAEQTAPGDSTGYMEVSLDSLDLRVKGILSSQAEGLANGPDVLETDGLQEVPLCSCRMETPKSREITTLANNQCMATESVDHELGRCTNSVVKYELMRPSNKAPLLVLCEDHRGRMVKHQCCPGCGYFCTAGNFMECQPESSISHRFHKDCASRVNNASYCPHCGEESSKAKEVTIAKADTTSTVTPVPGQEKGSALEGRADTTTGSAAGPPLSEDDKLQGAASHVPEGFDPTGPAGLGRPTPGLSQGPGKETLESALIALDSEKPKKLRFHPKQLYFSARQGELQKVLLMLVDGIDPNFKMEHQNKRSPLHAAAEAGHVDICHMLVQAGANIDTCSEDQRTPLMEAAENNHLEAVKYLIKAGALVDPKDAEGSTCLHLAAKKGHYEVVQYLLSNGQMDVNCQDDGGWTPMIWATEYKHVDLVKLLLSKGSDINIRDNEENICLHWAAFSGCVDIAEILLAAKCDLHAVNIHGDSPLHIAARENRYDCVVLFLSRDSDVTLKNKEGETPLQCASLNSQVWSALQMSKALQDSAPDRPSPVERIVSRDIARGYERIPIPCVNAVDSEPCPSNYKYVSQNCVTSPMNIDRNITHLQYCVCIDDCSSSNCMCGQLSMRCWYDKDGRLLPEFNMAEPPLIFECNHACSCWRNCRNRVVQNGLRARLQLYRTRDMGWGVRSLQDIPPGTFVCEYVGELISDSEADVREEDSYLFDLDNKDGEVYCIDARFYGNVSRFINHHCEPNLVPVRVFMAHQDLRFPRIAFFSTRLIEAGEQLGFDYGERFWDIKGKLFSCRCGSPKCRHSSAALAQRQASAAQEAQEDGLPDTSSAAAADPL
- ASSAY PROTOCOL: Triple SILAC pull-down after UNC0638 treatment of 293T cells, DMSO/UNC0638 ratio of protein captured by 3×MBT;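 further: mass spectrometry (Q-Exactive) SILAC quantitation, DMSO/UNC0638 ratio computed after subtracting 3×MBTD355N mutant pull-down background, only proteins with at least twofold 3×MBT over mutant signal considered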
- Assay type: cell-based
- Design: endogenous in cells; host or cells: HEK 293T
- MEASUREMENT SETUP: SILAC ratio DMSO/UNC0638 of protein pulled down with 3xMBT; UNC0638 in heavy SILAC media
OBSERVABLE: Relative to UNC0638 UNC Heavy (log base 2)

[[record]]
molecule = "CNN3 (protein, UniProt Q15417 1-329, looked up) Calponin-3: MTHFNKGPSYGLSAEVKNKIASKYDHQAEEDLRNWIEEVTGMSIGPNFQLGLKDGIILCELINKLQPGSVKKVNESSLNWPQLENIGNFIKAIQAYGMKPHDIFEANDLFENGNMTQVQTTLVALAGLAKTKGFHTTIDIGVKYAEKQTRRFDEGKLKAGQSVIGLQMGTNKCASQAGMTAYGTRRHLYDPKMQTDKPFDQTTISLQMGTNKGASQAGMLAPGTRRDIYDQKLTLQPVDNSTISLQMGTNKVASQKGMSVYGLGRQVYDPKYCAAPTEPVIHNGSQGTGTNGSEISDSDYQAEYPDEYHGEYQDDYPRDYQYSDQGIDY"
data_value = 0.61

[[record]]
molecule = "EIF4E2 (protein, UniProt O60573 1-245, looked up) Eukaryotic translation …: MNNKFDALKDDDSGDHDQNEENSTQKDGEKEKTERDKNQSSSKRKAVVPGPAEHPLQYNYTFWYSRRTPGRPTSSQSYEQNIKQIGTFASVEQFWRFYSHMVRPGDLTGHSDFHLFKEGIKPMWEDDANKNGGKWIIRLRKGLASRCWENLILAMLGEQFMVGEEICGAVVSVRFQEDIISIWNKTASDQATTARIRDTLRRVLNLPPNTIMEYKTHTDSIKMPGRLGPQRLLFQNLWKPRLNVP"
data_value = 0.24

